- method summary: inhibitors of TNFa-induced NFkB p65 translocation, primary screen, imaging, HUVEC, MLSMR starter and 10KST1 sets (AID 438);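 note: compound added about 3h40 before a 20 min TNFalpha stimulation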
- measurement context: HUVEC TNFa-induced p65 nuclear translocation; measured here: nuclei count (cytotoxicity indicator), at 2.08 µM
assay readout: cell count
Give only the figure.

# compound, cell count
records = [
    ("COC(=O)c1ccccc1NC(=O)CC(NCc1ccccc1)C(=O)O (stereo unspecified)", 619),
    ("O=C(CN1C(=O)c2ccccc2C1=O)OCN1C(=O)c2ccccc2C1=O", 494),
    ("CC12CCC(=O)N1c1c(sc3nc(N4CCOCC4)c4c(c13)CCCC4)C(=O)N2 (stereo unspecified)", 363),
    ("Cc1ccc2nc(NC(=O)CN(C)S(=O)(=O)c3cccc4nsnc34)sc2c1", 379),
    ("CC(=O)Nc1ccc(S(=O)(=O)Nc2nc3ccccc3nc2N2CCCC2)cc1", 369),
]

Query: For the compound COCCSc1ccccc1C(=O)Nc1nncs1 , report cell count.
Response: 659

Query: For the compound CC1(C)NC(=O)N(CC(O)CN2CCCC2)C1=O (stereo unspecified) , report cell count.
Response: 317

Query: For the compound CC(C)OCCCNc1ncnc2c1cnn2-c1ccccc1 , report cell count.
Response: 571

Query: For the compound O=C(Nc1cccc(O)c1)c1ccccc1 , report cell count.
Response: 474

Query: For the compound OC(COc1ccc2ccccc2c1)CN1CCOCC1 (stereo unspecified) , report cell count.
Response: 780
